- assayedTarget: T1, human RXFP1 receptor (human, UniProt Q9HBX9 1-757)
- T1 sequence (looked up): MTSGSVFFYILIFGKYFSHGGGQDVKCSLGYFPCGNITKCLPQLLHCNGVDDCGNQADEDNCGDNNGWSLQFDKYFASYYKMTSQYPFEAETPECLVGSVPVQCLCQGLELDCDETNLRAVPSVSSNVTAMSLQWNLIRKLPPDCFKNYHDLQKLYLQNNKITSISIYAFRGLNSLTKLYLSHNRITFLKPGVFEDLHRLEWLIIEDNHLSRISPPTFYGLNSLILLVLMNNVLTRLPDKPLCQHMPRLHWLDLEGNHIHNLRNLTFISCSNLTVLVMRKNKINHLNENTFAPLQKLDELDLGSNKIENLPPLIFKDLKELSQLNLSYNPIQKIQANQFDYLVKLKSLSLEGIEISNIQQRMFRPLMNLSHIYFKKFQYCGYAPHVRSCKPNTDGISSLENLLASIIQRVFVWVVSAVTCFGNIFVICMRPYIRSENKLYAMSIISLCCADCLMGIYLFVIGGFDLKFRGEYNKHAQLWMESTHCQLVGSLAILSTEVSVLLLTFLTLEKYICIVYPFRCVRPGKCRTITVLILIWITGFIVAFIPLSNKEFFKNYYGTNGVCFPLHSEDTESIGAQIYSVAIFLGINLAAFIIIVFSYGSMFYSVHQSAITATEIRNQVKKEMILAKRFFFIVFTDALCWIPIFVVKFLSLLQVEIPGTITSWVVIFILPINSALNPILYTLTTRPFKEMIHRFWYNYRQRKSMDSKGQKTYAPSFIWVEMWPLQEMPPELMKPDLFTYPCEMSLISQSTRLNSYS
- procedureSummary: cell-based or functional assay
Ends that are not written are not given here.
observedProperty: hRXFP1/CHO-K1 cAMP EC50 (nM, avg) (nM)
Answers are plain numbers, in nM.

Previously resolved entries follow.
* AQ1-EEEEPEEEEPEEEEPEEGGG-C14-CH3 (ligand, linked to fatty acid -C14-CH3; oxime-linked to pAcF of the A chain; pAcF (para-acetyl-L-phenylalanine) at position 1, oxime-linked to PK enhancer EEEEPEEEEPEEEEPEEGGG-C14-CH3) chain 1: XLYSALANKCCHVGCTKRSLARFC chain 2: ASWMEEVIKLCGRELVRAQIAICGMSTWS peptide: EEEEPEEEEPEEEEPEEGGG | 0.16
* WT-RLX (ligand, disulfide (positions not given here); ends not checked) chain 1: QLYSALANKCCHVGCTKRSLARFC chain 2: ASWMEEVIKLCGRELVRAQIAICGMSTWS | 0.12
* AQ1-GSHHHHHGS-Glu^γ-C13-COOH (ligand, not fully specified; Glu^γ bonded by amide to fatty acid -C13-COOH; oxime-linked to pAcF of the A chain; pAcF (para-acetyl-L-phenylalanine) at position 1, oxime-linked to PK enhancer GSHHHHHGS-Glu^γ-C13-COOH) chain 1: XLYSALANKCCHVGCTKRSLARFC chain 2: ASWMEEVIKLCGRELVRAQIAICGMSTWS peptide: GSHHHHHGSE | 0.28

// for each binder in input: emit hRXFP1/CHO-K1 cAMP EC50 (nM, avg)
1. AQ1-KGGGS-Glu^γ-C14-COOH (ligand, not fully specified; Glu^γ bonded by amide to fatty acid -C14-COOH; oxime-linked to pAcF of the A chain; pAcF (para-acetyl-L-phenylalanine) at position 1, oxime-linked to PK enhancer KGGGS-Glu^γ-C14-COOH) chain 1: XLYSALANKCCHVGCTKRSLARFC chain 2: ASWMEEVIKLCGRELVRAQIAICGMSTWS peptide: KGGGSE
2. AQ1-KKGGS-Glu^γ -C15-COOH (ligand, not fully specified; Glu^γ bonded by amide to fatty acid -C15-COOH; oxime-linked to pAcF of the A chain; pAcF (para-acetyl-L-phenylalanine) at position 1, oxime-linked to PK enhancer KKGGS-Glu^γ-C15-COOH) chain 1: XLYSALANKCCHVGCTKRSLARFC chain 2: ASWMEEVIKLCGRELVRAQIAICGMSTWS peptide: KKGGSE

[reply]
0.34
1.36
